Reference source for all entries: paper PMC4503722

Test system: INS-1E cells
Test: cells
Format: cell-based, rat
Settings: read-out: Insulin Secretion
attribute measured: EC50

In: // returns reported EC50 for input Oc1c(Cl)cc(Cl)c(Cl)c1Cc1c(O)c(Cl)cc(Cl)c1Cl
Out: > 10 µM

----------
Molecular target: hFLT3 (Homo sapiens)
Construct: purchased Cerep (LANCE kinase assay platform, contract assay)
Sequence (P36888 27-993): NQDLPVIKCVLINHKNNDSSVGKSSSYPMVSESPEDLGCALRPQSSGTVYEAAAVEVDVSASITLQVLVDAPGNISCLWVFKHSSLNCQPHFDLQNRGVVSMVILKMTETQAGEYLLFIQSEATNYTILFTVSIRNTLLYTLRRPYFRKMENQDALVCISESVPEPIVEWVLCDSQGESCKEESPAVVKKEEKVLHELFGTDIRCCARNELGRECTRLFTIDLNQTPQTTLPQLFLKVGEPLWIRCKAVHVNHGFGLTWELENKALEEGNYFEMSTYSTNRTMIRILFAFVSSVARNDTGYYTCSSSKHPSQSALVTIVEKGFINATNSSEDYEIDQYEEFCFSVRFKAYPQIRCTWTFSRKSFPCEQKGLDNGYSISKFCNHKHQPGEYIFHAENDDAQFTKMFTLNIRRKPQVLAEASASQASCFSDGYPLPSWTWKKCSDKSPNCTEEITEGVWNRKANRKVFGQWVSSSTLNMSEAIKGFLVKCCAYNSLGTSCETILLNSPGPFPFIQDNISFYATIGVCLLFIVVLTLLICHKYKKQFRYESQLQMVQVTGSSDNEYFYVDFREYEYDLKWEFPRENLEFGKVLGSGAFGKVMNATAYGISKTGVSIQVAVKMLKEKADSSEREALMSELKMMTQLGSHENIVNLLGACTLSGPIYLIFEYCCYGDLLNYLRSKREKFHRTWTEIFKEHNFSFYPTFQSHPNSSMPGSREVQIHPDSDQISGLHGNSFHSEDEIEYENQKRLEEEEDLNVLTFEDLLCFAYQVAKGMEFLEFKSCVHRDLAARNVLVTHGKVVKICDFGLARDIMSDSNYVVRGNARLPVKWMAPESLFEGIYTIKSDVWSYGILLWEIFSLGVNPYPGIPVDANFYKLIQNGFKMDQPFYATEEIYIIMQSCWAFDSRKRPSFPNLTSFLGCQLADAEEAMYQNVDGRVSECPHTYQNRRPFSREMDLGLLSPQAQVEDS
Test: Cerep LANCE kinase assay hFLT3 (S1 assay 35)
Assay type: biochemical
Provide the reported IC50/EC50, hFLT3 LANCE (assay number 35) of each item.

In: Which measured IC50/EC50, hFLT3 LANCE (assay number 35) belongs to CCCSc1ccc2nc(NC(=O)OC)[nH]c2c1 , tested on hFLT3 (Homo sapiens)?
Out: > 20 µM

In: Now the same for NC(=NCCCCCCN=C(N)/N=C(\N)Nc1ccc(Cl)cc1)/N=C(\N)Nc1ccc(Cl)cc1
Out: > 20 µM

In: Now the same for CCN(CC)CCNc1ccc(CO)c2sc3ccccc3c(=O)c12
Out: > 20 µM

In: Now the same for C[n+]1c2cc(N)ccc2cc2ccc(N)cc21
Out: > 20 µM

In: Now the same for COC(=O)c1nc(Cl)c(Cl)nc1N
Out: 2.86 µM

In: Now the same for O=c1[nH]c(=O)n([C@H]2C[C@H](O)[C@@H](CO)O2)cc1F
Out: > 20 µM
